meta.source: patent US20140113898A1

target: CaV2.2 (Homo sapiens, UniProt Q00975); construct: expressed in transfected cells; host or cells: unnamed doxycycline-inducible cell line; assay: High-throughput CaV2.2/Kir2.3 FLIPR fluorescent assay; assay type: cell-based; details: Table 4; Fluo-4 FLIPR; closed or inactivated state not stated; read-out: FLIPR data CaV2.2
Sequence (Q00975 whole entry): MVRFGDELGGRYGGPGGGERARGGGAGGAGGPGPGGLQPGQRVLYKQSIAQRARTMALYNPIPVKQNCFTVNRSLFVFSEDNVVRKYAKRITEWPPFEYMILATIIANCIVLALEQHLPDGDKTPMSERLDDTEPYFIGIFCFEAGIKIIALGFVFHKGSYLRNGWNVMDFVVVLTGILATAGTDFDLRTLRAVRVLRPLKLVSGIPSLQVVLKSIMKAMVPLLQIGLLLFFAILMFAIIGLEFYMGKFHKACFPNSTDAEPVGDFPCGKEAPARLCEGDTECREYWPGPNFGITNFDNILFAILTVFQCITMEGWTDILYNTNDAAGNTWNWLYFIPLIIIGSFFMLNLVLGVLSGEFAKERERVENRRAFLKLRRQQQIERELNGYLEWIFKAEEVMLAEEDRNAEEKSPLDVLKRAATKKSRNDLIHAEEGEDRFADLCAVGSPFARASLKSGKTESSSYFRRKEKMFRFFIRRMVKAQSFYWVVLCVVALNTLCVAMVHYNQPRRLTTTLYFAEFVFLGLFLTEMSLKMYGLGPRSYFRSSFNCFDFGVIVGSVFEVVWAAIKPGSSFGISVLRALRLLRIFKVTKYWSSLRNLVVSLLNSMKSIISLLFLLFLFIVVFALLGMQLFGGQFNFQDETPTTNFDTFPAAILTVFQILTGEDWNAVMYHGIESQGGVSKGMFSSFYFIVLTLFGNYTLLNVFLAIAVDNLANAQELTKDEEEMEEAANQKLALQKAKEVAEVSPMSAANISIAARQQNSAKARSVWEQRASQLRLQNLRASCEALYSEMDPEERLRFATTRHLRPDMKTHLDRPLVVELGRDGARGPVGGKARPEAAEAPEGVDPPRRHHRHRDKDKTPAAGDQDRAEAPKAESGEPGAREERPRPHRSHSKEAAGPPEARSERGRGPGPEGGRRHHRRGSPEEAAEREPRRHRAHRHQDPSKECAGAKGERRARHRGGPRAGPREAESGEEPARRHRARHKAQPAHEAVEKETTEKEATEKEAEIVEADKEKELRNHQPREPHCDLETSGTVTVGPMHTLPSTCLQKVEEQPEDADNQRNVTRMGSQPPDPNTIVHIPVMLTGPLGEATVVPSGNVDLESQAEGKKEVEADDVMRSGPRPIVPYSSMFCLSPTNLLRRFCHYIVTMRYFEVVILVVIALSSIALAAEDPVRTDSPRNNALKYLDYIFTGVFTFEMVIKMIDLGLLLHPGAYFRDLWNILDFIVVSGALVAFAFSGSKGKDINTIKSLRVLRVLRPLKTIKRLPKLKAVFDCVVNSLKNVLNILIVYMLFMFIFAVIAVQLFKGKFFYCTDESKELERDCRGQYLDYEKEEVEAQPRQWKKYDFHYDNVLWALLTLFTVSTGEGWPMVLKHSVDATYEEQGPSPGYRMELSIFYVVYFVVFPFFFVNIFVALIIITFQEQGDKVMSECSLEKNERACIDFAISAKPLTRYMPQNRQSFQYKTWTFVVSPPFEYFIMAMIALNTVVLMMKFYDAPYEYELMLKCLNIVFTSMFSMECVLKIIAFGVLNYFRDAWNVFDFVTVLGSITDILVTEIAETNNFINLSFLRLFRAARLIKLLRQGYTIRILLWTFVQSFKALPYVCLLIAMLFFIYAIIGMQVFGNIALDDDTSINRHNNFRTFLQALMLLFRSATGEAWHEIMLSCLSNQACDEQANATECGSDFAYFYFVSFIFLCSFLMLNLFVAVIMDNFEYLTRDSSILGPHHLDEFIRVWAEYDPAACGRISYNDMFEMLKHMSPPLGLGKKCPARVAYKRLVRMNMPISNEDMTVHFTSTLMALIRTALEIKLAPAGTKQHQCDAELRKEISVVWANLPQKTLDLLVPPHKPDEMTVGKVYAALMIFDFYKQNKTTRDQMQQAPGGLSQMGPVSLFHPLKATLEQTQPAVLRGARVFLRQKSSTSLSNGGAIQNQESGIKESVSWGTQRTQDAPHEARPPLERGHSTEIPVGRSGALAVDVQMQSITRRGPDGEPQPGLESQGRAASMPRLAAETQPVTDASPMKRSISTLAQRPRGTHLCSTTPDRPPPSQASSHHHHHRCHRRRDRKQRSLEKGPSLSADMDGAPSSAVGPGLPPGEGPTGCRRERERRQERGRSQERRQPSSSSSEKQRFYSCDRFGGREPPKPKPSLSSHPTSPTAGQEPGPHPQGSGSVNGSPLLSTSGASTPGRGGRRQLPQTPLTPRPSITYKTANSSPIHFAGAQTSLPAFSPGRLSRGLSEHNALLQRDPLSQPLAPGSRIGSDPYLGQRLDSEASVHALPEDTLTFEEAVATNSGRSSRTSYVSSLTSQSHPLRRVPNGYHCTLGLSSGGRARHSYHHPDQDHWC
Sequence (P54284 whole entry partner): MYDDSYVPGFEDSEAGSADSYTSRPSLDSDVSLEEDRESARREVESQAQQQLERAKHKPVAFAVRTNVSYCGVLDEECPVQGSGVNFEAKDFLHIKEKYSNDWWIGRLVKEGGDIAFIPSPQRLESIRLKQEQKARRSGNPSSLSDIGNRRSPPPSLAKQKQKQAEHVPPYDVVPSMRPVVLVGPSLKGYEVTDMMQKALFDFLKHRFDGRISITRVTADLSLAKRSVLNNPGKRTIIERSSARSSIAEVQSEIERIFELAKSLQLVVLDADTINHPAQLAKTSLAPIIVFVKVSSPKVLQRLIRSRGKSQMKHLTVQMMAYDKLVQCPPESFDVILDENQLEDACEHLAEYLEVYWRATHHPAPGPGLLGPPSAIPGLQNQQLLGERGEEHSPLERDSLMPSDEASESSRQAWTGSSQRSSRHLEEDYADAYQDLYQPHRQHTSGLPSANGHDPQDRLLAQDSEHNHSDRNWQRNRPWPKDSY
Sequence (P54289 25-946 partner limits assumed): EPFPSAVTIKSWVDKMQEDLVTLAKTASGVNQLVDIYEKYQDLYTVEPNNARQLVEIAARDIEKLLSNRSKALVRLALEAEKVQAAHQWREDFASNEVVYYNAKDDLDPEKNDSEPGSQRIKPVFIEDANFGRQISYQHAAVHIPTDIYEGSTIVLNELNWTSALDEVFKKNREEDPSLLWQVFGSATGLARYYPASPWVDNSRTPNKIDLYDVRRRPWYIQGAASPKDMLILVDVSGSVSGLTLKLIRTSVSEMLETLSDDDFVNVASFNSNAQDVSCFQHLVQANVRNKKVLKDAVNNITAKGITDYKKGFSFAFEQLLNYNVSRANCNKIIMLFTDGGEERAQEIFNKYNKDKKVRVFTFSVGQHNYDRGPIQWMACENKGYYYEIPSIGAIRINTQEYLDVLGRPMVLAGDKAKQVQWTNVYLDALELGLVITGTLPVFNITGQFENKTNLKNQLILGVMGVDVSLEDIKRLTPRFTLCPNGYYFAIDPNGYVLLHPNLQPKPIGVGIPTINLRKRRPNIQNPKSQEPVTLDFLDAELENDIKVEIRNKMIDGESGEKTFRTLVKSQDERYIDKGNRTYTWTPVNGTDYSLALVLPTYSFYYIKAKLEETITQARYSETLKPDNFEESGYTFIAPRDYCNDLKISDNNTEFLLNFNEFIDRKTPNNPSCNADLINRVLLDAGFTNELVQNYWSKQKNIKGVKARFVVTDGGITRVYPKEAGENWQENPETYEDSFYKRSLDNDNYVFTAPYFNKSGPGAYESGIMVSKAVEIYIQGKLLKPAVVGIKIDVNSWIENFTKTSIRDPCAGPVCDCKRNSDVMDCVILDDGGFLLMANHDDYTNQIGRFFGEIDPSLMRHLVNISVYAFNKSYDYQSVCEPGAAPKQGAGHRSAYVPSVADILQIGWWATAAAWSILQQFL
Sequence (P54289 947-1103 partner limits assumed): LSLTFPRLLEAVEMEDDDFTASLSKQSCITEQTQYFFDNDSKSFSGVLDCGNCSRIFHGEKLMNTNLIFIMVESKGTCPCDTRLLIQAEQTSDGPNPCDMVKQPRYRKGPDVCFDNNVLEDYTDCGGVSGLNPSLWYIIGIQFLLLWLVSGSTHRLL
pIC50: −log10 of the molar value.
Decide by pIC50: equal to or exceeding 6 means Fulfilled, less means Not fulfilled.

[
  {
    "compoundString": "CC(C)(C(=O)NCc1ccc(S(=O)(=O)c2cccc(C(F)(F)F)c2)cn1)S(=O)(=O)c1cccc(C(F)(F)F)c1",
    "class": "Fulfilled"
  },
  {
    "compoundString": "O=C(NCc1cccc(S(=O)(=O)c2cccc(C(F)(F)F)c2)c1)c1ccnc(C(F)(F)F)n1",
    "class": "Fulfilled"
  },
  {
    "compoundString": "O=C(NCc1ccccc1S(=O)(=O)c1cccc(C(F)(F)F)c1)[C@@H]1CCCN1",
    "class": "Not fulfilled"
  },
  {
    "compoundString": "O=C(NCc1ccc(S(=O)(=O)c2cccc(C(F)(F)F)c2)cn1)[C@H]1C[C@@H](C2CCCCC2)CN1",
    "class": "Fulfilled"
  },
  {
    "compoundString": "CS(=O)(=O)c1cc(C(=O)NCc2cccc(S(=O)(=O)c3cccc(C(F)(F)F)c3)c2)cc(C(F)(F)F)n1",
    "class": "Fulfilled"
  }
]
